assay: pH solubility profile: one hour and three hour kinetic solubility in USP buffers at 0.05 M; type: physicochemical; details: aqueous buffer, thermodynamic from solid; pH 2.9; USP buffer 0.05 M; 25° C.
experimental endpoint: solubility at 3 h (mg/mL)
# value in mg/mL; strip the unit string

// "CC(=O)[O-].CCO/N=C(\C(=O)N[C@@H]1C(=O)N2C(C(=O)O)=C(Sc3nc(-c4cc[n+](C)cc4)cs3)CS[C@H]12)c1nsc(NP(=O)(O)O)n1.O" : solubility at 3 h value = 27

###

assay: One hour kinetic solubility in acetic acid/sodium acetate ion mixtures; assay type: physicochemical; details: acetic acid/sodium acetate buffer, 25 °C, pH 4.7, aqueous buffer, thermodynamic from solid, pH 4.7; acetic acid/sodium acetate 0.5 M; 25° C.; read-out: Solubility at 1 hr
experimental endpoint: solubility at 1 h (mg/mL)
Give the value, in units of mg/mL, as a plain number.

Entry "CC(=O)[O-].CCO/N=C(\C(=O)N[C@@H]1C(=O)N2C(C(=O)O)=C(Sc3nc(-c4cc[n+](C)cc4)cs3)CS[C@H]12)c1nsc(NP(=O)(O)O)n1.O" — recorded solubility at 1 h = 156

###

assay: Part A: single-dose IM injection and IV infusion pharmacokinetic study in healthy human subjects; format: in vivo; conditions: human, in vivo, im, 400 mg, AUC0-∞
experimental endpoint: AUC(0-inf)

So, CCO/N=C(\C(=O)N[C@@H]1C(=O)N2C(C(=O)[O-])=C(Sc3nc(-c4cc[n+](C)cc4)cs3)CS[C@H]12)c1nsc(N)n1 [Ceftaroline, ceftaroline] ? Its AUC(0-inf) was 35600 ng·h/mL

###

test: One hour kinetic solubility in citric acid/sodium citrate ion mixtures; format: physicochemical; details: USP buffer with citric acid/sodium citrate, 25 °C, aqueous buffer, thermodynamic from solid, citric acid/sodium citrate 0.5 M; 25° C.; read-out: Solubility at 1 hr
experimental endpoint: solubility at 1 h
Don't forget the unit after the value.

For record "CC(=O)[O-].CCO/N=C(\C(=O)N[C@@H]1C(=O)N2C(C(=O)O)=C(Sc3nc(-c4cc[n+](C)cc4)cs3)CS[C@H]12)c1nsc(NP(=O)(O)O)n1.O" the listed solubility at 1 h is 240 mg/mL

###

assay: Part A: single-dose IM injection and IV infusion pharmacokinetic study in healthy human subjects; assay type: in vivo; conditions: human, in vivo, im, 600 mg, T1/2
experimental endpoint: half-life (h)
All answers are understood in h, so give the number only.

Sure, the documented half-life for "CCO/N=C(\C(=O)N[C@@H]1C(=O)N2C(C(=O)[O-])=C(Sc3nc(-c4cc[n+](C)cc4)cs3)CS[C@H]12)c1nsc(N)n1" is 2.55

###

assay: pH solubility profile: one hour and three hour kinetic solubility in USP buffers at 0.05 M; format: physicochemical; conditions: aqueous buffer, thermodynamic from solid; pH 1.9; USP buffer 0.05 M; 25° C.
experimental endpoint: solubility at 1 h
Please state the value followed by its unit.

// field: solubility at 1 h; key: CC(=O)[O-].CCO/N=C(\C(=O)N[C@@H]1C(=O)N2C(C(=O)O)=C(Sc3nc(-c4cc[n+](C)cc4)cs3)CS[C@H]12)c1nsc(NP(=O)(O)O)n1.O [ceftaroline fosamil] ; value = 9000 µg/mL

###

assay: One hour kinetic solubility in citric acid/sodium citrate ion mixtures; format: physicochemical; conditions: citric acid/sodium citrate ion mixtures, 25 °C, aqueous buffer, thermodynamic from solid, at citrate concentrations of 0.5 M and higher; read-out: solubility
experimental endpoint: solubility at 1 h

So, "CC(=O)[O-].CCO/N=C(\C(=O)N[C@@H]1C(=O)N2C(C(=O)O)=C(Sc3nc(-c4cc[n+](C)cc4)cs3)CS[C@H]12)c1nsc(NP(=O)(O)O)n1.O" ? Its solubility at 1 h was > 200 mg/mL

###

assay: Linear calculated pharmacokinetic parameters following single dose IM injection; type: in vivo, human; details: human, in vivo, im, 2005 mg
experimental endpoint: Cmax (ng/mL)
Record the value in ng/mL, omitting the unit from your answer.

# molecule CCO/N=C(\C(=O)N[C@@H]1C(=O)N2C(C(=O)[O-])=C(Sc3nc(-c4cc[n+](C)cc4)cs3)CS[C@H]12)c1nsc(N)n1 [Ceftaroline, ceftaroline] ; its Cmax = 28100

###

assay: One hour kinetic solubility in acetic acid/sodium acetate ion mixtures; format: physicochemical; conditions: USP buffer with acetic acid/sodium acetate, 25 °C, pH 4.8, aqueous buffer, thermodynamic from solid, pH 4.8; acetic acid/sodium acetate 1.0 M; 25° C.; read-out: Solubility at 1 hr
experimental endpoint: solubility at 1 h (mg/mL)
Give the value, in units of mg/mL, as a plain number.

"CC(=O)[O-].CCO/N=C(\C(=O)N[C@@H]1C(=O)N2C(C(=O)O)=C(Sc3nc(-c4cc[n+](C)cc4)cs3)CS[C@H]12)c1nsc(NP(=O)(O)O)n1.O" yielded solubility at 1 h of 235

###

test: Part A: single-dose IM injection and IV infusion pharmacokinetic study in healthy human subjects; assay type: in vivo; conditions: human, in vivo, im, 400 mg, AUC0-t
experimental endpoint: AUC0-t (ng·h/mL)
Express your answer in ng·h/mL, writing the number without its unit.

Consider CCO/N=C(\C(=O)N[C@@H]1C(=O)N2C(C(=O)[O-])=C(Sc3nc(-c4cc[n+](C)cc4)cs3)CS[C@H]12)c1nsc(N)n1 [Ceftaroline, ceftaroline] . Its measured AUC0-t is 35300

###

assay: Linear calculated pharmacokinetic parameters following single dose IM injection; type: in vivo, human; conditions: human, in vivo, im, 223 mg
experimental endpoint: AUC(0-inf) (ng·h/mL)
# output: bare number, implied unit ng·h/mL

Sample "CCO/N=C(\C(=O)N[C@@H]1C(=O)N2C(C(=O)[O-])=C(Sc3nc(-c4cc[n+](C)cc4)cs3)CS[C@H]12)c1nsc(N)n1" ; AUC(0-inf) observed: 17800

###

test: One hour kinetic solubility in acetic acid/sodium acetate ion mixtures; type: physicochemical; settings: USP buffer with acetic acid/sodium acetate, 25 °C, pH 3.9, aqueous buffer, thermodynamic from solid, pH 3.9; acetic acid/sodium acetate 1.0 M; 25° C.; read-out: Solubility at 1 hr
experimental endpoint: solubility at 1 h (mg/mL)
Quick reminder: number only, in mg/mL, skip the unit.

So for "CC(=O)[O-].CCO/N=C(\C(=O)N[C@@H]1C(=O)N2C(C(=O)O)=C(Sc3nc(-c4cc[n+](C)cc4)cs3)CS[C@H]12)c1nsc(NP(=O)(O)O)n1.O" , the logged solubility at 1 h turned out to be 237

###

assay: One hour kinetic solubility in DL arginine mixtures; format: physicochemical; settings: USP buffer with DL arginine, 25 °C, aqueous buffer, thermodynamic from solid, DL arginine 1.0 M; 25° C.; read-out: Solubility at 1 hr
experimental endpoint: solubility at 1 h (mg/mL)
Express it in mg/mL; write the number only.

Looking up "CC(=O)[O-].CCO/N=C(\C(=O)N[C@@H]1C(=O)N2C(C(=O)O)=C(Sc3nc(-c4cc[n+](C)cc4)cs3)CS[C@H]12)c1nsc(NP(=O)(O)O)n1.O" , I found its solubility at 1 h recorded as 233

###

test: pH solubility profile: one hour and three hour kinetic solubility in USP buffers at 0.05 M; format: physicochemical; details: aqueous buffer, thermodynamic from solid; pH 7.3; USP buffer 0.05 M; 25° C.
experimental endpoint: solubility at 1 h (mg/mL)
Express your answer in mg/mL, writing the number without its unit.

"CC(=O)[O-].CCO/N=C(\C(=O)N[C@@H]1C(=O)N2C(C(=O)O)=C(Sc3nc(-c4cc[n+](C)cc4)cs3)CS[C@H]12)c1nsc(NP(=O)(O)O)n1.O" has a reported solubility at 1 h of 25

###

experiment: pH solubility profile: one hour and three hour kinetic solubility in USP buffers at 0.05 M; type: physicochemical; conditions: USP buffers, 25 °C, aqueous buffer, thermodynamic from solid; over pH about 3 to about 8, 0.05 M
experimental endpoint: solubility

response.value for "CC(=O)[O-].CCO/N=C(\C(=O)N[C@@H]1C(=O)N2C(C(=O)O)=C(Sc3nc(-c4cc[n+](C)cc4)cs3)CS[C@H]12)c1nsc(NP(=O)(O)O)n1.O" (field: solubility) = 25 to 36 mg/mL

###

assay: One hour kinetic solubility in L-arginine mixtures; format: physicochemical; details: USP buffer with L-arginine, 25 °C, aqueous buffer, thermodynamic from solid, L-arginine 0.1 M; 25° C.; read-out: Solubility at 1 hr
experimental endpoint: solubility at 1 h (mg/mL)
Record the value in mg/mL, omitting the unit from your answer.

// sample CC(=O)[O-].CCO/N=C(\C(=O)N[C@@H]1C(=O)N2C(C(=O)O)=C(Sc3nc(-c4cc[n+](C)cc4)cs3)CS[C@H]12)c1nsc(NP(=O)(O)O)n1.O [ceftaroline fosamil] , its solubility at 1 h was 82

###

test: One hour kinetic solubility in acetic acid/sodium acetate ion mixtures; assay type: physicochemical; conditions: USP buffer with acetic acid/sodium acetate, 25 °C, pH 8.9, aqueous buffer, thermodynamic from solid, pH 8.9; acetic acid/sodium acetate 1.0 M; 25° C.; read-out: Solubility at 1 hr
experimental endpoint: solubility at 1 h (mg/mL)
Express it in mg/mL; write the number only.

The reported value for "CC(=O)[O-].CCO/N=C(\C(=O)N[C@@H]1C(=O)N2C(C(=O)O)=C(Sc3nc(-c4cc[n+](C)cc4)cs3)CS[C@H]12)c1nsc(NP(=O)(O)O)n1.O" in terms of solubility at 1 h is 102
